Every entry's value here was drawn from the supplement of paper PMC6555819.

Tested on: PPARa:RXRa (NR concentration 270 nM, RXRa partner concentration 90 nM)
Assay: PBM binding z-score (relative to random genomic background probes); higher = stronger binding; sequences stand for … in GC…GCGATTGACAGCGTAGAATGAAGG
Okay, here is how we bin by PBM binding z-score: Low (below 0.5), Mid (0.5 to below 5), High (5 or more)

>  <Input Sequence>
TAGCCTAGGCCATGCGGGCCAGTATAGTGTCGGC

>  <Class>
Low

$$$$
>  <Input Sequence>
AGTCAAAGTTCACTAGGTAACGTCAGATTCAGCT

>  <Class>
Mid

$$$$
>  <Input Sequence>
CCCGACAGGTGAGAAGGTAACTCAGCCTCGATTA

>  <Class>
Mid

$$$$
>  <Input Sequence>
TCGAGTATGTTAGTCGGGGCATTCAGCCAACATA

>  <Class>
Low

$$$$
>  <Input Sequence>
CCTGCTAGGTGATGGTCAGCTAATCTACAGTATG

>  <Class>
Low

$$$$
>  <Input Sequence>
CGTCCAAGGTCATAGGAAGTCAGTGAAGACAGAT

>  <Class>
High

$$$$
>  <Input Sequence>
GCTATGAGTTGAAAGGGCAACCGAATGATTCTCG

>  <Class>
Mid

$$$$
>  <Input Sequence>
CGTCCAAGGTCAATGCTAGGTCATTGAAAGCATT

>  <Class>
High

$$$$
>  <Input Sequence>
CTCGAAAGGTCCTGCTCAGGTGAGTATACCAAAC

>  <Class>
Mid

$$$$
>  <Input Sequence>
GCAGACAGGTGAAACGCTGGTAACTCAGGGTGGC

>  <Class>
Mid

$$$$
>  <Input Sequence>
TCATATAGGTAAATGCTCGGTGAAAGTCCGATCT

>  <Class>
Mid

$$$$

----------
Tested on: PPARa:RXRa (NR concentration 270 nM, RXRa partner concentration 90 nM)
Test: PBM binding z-score (relative to random genomic background probes); higher = stronger binding; sequences stand for … in GC…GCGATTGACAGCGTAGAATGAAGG
Threshold rule: PBM binding z-score greater than or equal to 2 is Met; below that, Not met.

>  <Input Sequence>
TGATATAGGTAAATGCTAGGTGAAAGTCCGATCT

>  <Class>
Not met

$$$$
>  <Input Sequence>
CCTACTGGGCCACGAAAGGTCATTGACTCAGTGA

>  <Class>
Met

$$$$
>  <Input Sequence>
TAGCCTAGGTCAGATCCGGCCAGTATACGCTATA

>  <Class>
Not met

$$$$
>  <Input Sequence>
ATATGTAGGTTACATCCGGGTCATTCCGGCTATG

>  <Class>
Met

$$$$
>  <Input Sequence>
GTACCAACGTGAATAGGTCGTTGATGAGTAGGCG

>  <Class>
Not met

$$$$
>  <Input Sequence>
CCTACTGGGCCATTCAGAGGTCATTGAGCATATG

>  <Class>
Met

$$$$
>  <Input Sequence>
GTACCAAGGTGAATAGGTCGATGATGAGTAGGCG

>  <Class>
Not met

$$$$
>  <Input Sequence>
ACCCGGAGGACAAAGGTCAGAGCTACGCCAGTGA

>  <Class>
Met

$$$$
>  <Input Sequence>
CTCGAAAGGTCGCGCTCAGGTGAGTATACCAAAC

>  <Class>
Met

$$$$
>  <Input Sequence>
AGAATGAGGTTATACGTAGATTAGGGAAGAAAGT

>  <Class>
Met

$$$$
>  <Input Sequence>
CCTACTGGGCCACGAAAGGTCAGTGATTCAGTGA

>  <Class>
Met

$$$$
>  <Input Sequence>
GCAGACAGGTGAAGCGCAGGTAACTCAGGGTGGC

>  <Class>
Not met

$$$$
